B1: CD207 (parent)
chain: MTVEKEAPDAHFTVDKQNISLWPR

Variants of: B1
Assay: protein stability index of a GFP-peptide fusion (GPS, HEK-293T) (PSI 1-6); higher = more stable;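 note: lentivirally expressed fusions sorted by FACS into six bins by GFP to DsRed ratio, PSI derived from sequencing read proportions per bin multiplied by bin number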
Details: c terminus: a fixed tail appended
ENDPOINT: protein stability index
Numbers only.

Recorded protein stability index, per entry:
MTVEKEAPDAHFTVDKQGISLWPR [N18G] | 3
MTVEKEAPDAHFTKDKQNISLWPR [V14K] | 3.41
MTVECEAPDAHFTVDKQNISLWPR [K5C] | 2.58

Below: the item to evaluate.
Lab note: MTVEKEAPDAEFTVDKQNISLWPR [H11E] gave protein stability index of 4.08
